test system: RAW 264.7 cells; test: Cell viability of drug treated RAW 264.7 cells (CellTiter 96 AQueous One, MTS); settings: 1 μM; RAW 264.7 cells; percentage of vehicle control value; mean ± S.E.M., n = 3
REPORTED_ENDPOINT: Cell Viability % Δ (%)
Write the value in % as a bare number.

C[C@@H]1[C@@H](N2C(=O)c3c(F)ccc(F)c3C2=O)C[C@H]2C[C@@H]1C2(C)C	102
C[C@@H]1[C@@H](N2C(=O)c3c(F)c(F)c(F)c(F)c3C2=O)C[C@H]2C[C@@H]1C2(C)C	63
C[C@H]1[C@H](N2C(=O)c3c(F)c(F)c(F)c(F)c3C2=O)C[C@@H]2C[C@H]1C2(C)C	90

Kindly review the next compound as well.
The compound listed as `CC1(C)[C@@H]2CC[C@@]1(C)[C@@H](N1C(=O)c3c(F)c(F)c(F)c(F)c3C1=O)C2` shows Cell Viability % Δ equal to 95

###

system: LPS-induced nitrite in RAW 264.7 cells; assay: LPS-induced nitrite production in RAW 264.7 cells (Griess reagent / fluorometric kit); type: cell-based, mouse; conditions: 10 uM; LPS-activated RAW 264.7 cells (Table 9)
# reported Nitrite, % Change versus Control (± s.e.m.); entries follow

Below are worked cases with known answers.
Nc1c(F)ccc2c1C(=S)N(C1CCC(=S)NC1=O)C2=O (stereo not drawn) [drawing 94]	40 ± 1.2 (N.S.) $ %
Nc1cccc2c1C(=O)N(C1CCC(=O)NC1=O)C2=O (stereo not drawn)	91 ± 1.6 (N.S.) %
Nc1ccc(F)c2c1C(=S)N(C1CCC(=S)NC1=O)C2=O (stereo not drawn) [drawing 92]	22 ± 1.7 ( **** ) %
Nc1c(F)ccc2c1C(=O)N(C1CCC(=O)NC1=O)C2=O (stereo not drawn) [drawing 93]	100 ± 5.5 (N.S.) %

The molecule listed as Nc1cccc2c1C(=S)N(C1CCC(=S)NC1=O)C2=O (stereo not drawn) [drawing 90] shows Nitrite, % Change versus Control (± s.e.m.) equal to 43 ± 1.0 (N.S.) $ %

The molecule listed as Nc1ccc(F)c2c1C(=O)N(C1CCC(=O)NC1=O)C2=O (stereo not drawn) [drawing 91] shows Nitrite, % Change versus Control (± s.e.m.) equal to 86 ± 3.9 (N.S.) %

###

tested on: RAW 264.7 cells; experiment: Cell viability of drug treated RAW 264.7 cells (CellTiter 96 AQueous One, MTS); conditions: 1 μM; RAW 264.7 cells; percentage of vehicle control value; mean ± S.E.M., n = 3
# reported Cell Viability % Δ; entries follow
Write the value in % as a bare number.

Below are worked cases with known answers.
CC1(C)[C@H]2CC[C@@H](CN3C(=O)c4c(F)ccc(F)c4C3=O)[C@@H]1C2 [Compound 19]	98
C[C@H]1[C@H](N2C(=O)c3c(F)ccc(F)c3C2=O)C[C@@H]2C[C@H]1C2(C)C [Compound 17]	100
CC1(C)[C@H]2CC[C@@H](CN3C(=O)c4c(F)c(F)c(F)c(F)c4C3=O)[C@@H]1C2 [Compound 13]	78

The compound listed as CC1(C)[C@@H]2CC[C@@]1(C)[C@@H](N1C(=O)c3c(F)ccc(F)c3C1=O)C2 [Compound 20] shows Cell Viability % Δ equal to 101
